Experiment: Stability in simulated intestinal fluid (SIF)
Assay type: in vitro ADME
Conditions: simulated intestinal fluid with pancreatin, pH 6.8, 37° C., matrix is 100 fold dilution of standard SIF concentration, read-out: SIF t½ (converted)
Numbered stars: 1 amine (or outer) side, 2 acyl side, 3 side chain; on linkers, the order of the positions; unused ones are H or OH. Bridge positions count the residues as written; N and C are the ends. Square brackets hold non-standard residues; d marks the D form. Peptide text beside a SMILES is read from it. Trp(7-Me) = Cc1cccc2c(C[C@H](N)C(=O)O)c[nH]c12; Abu(4-yl) = O=C([C@H](CC[*:3])N[*:1])[*:2]; 2Nal = N[C@@H](Cc1ccc2ccccc2c1)C(=O)O; AEF = NCCOc1ccc(C[C@H](N)C(=O)O)cc1; Cit = NC(=O)NCCC[C@H](N)C(=O)O; Pen = CC(C)(S)[C@H](N)C(=O)O; αMeK = C[C@](N)(CCCCN)C(=O)O; Aib = CC(C)(N)C(=O)O
Parameter half-life at 20 μM: see the listing below.
Reply numerically in h, unit not repeated.

{"columns": ["compound", "measure", "readout_unit", "observed_result"],
 "data": [
  ["CC(=O)NCCCC[C@H](NC(=O)[C@](C)(CCCCN)NC(=O)[C@H](Cc1ccc2ccccc2c1)NC(=O)[C@H](Cc1ccc(OCCN)cc1)NC(=O)[C@H]1NC(=O)[C@H](CCCNC(N)=O)NC(=O)[C@H](Cc2c[nH]c3c(C)cccc23)NC(=O)[C@H]([C@@H](C)O)NC(=O)[C@H](CC(N)=O)NC(=O)[C@@H](NC(C)=O)C(C)(C)SSC1(C)C)C(=O)N[C@@H](CC(N)=O)C(=O)NC(C)(C)C(=O)NCC(N)=O [compound 341] (Ac-[Pen]NT[Trp(7-Me)][Cit][Pen][AEF][2Nal][αMeK]K(Ac)N[Aib]G-NH2; disulfide 1-6)", "half-life at 20 μM", "h", 17],
  ["CC(=O)NCCCC[C@@H]1NC(=O)[C@H](Cc2c[nH]c3c(C)cccc23)NC(=O)[C@H]([C@@H](C)O)NC(=O)[C@H](CCC(N)=O)NC(=O)[C@@H](NC(=O)[C@@H](CCCNC(=N)N)NC(C)=O)CCSC[C@@H](C(=O)N[C@@H](Cc2ccc(OCCN)cc2)C(=O)N[C@@H](Cc2ccc3ccccc3c2)C(=O)N[C@@](C)(CCCCN)C(=O)N[C@@H](CCCCNC(C)=O)C(=O)N[C@@H](CC(N)=O)C(N)=O)NC1=O [compound 326] (Ac-[dR][Abu(4-yl)]QT[Trp(7-Me)]K(Ac)C[AEF][2Nal][αMeK]K(Ac)N-NH2; thioether 2-7)", "half-life at 20 μM", "h", 4]
]}

Continue with the compound presented below.
For this compound ( `CC(=O)NCCCC[C@@H]1NC(=O)[C@H](Cc2c[nH]c3c(C)cccc23)NC(=O)[C@H]([C@@H](C)O)NC(=O)[C@H](CC(N)=O)NC(=O)[C@@H](NC(C)=O)C(C)(C)SSC(C)(C)[C@@H](C(=O)N[C@@H](Cc2ccc(OCCN)cc2)C(=O)N[C@@H](Cc2ccc3ccccc3c2)C(=O)N[C@@](C)(CCCCN)C(=O)N[C@@H](CCCCNC(=O)C2CCCCC2)C(=O)N[C@@H](CC(N)=O)C(=O)N[C@H](CC(C)C)C(N)=O)NC1=O` ), measured half-life at 20 μM is 14
